target: Fibroblast growth factor receptor 1 (Homo sapiens); details: at 1 µM;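 also: values are the mean percent inhibition of FGFR1 across replicate measurements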
measurement_label: inhibition

(Q) Which inhibition value belongs to CCCN1CCCC(c2ccc(Nc3nc(Nc4cc(F)ccc4C(N)=O)c4cc[nH]c4n3)c(OC)c2)C1 (stereo not given) ?
(A) 3.44%

(Q) Note, next up: "NC(=O)c1cccc(Nc2nccc(Nc3cccc(F)c3)n2)c1"
(A) 10.2%

(Q) Moving on to "COc1cc2ncnc(Nc3ccc(C)c(O)c3)c2cc1OC"
(A) 17.2%

(Q) Also "FC(F)(F)c1ccc(-c2nn3ncccc3c2-c2ccnc(Nc3ccc4c(c3)OCCO4)n2)cc1" ?
(A) 6.28%

(Q) Param item: "Cc1ccc2c(-c3ccnc(Nc4ccc5c(c4)OCCO5)n3)c(-c3ccc(C(F)(F)F)cc3)nn2n1"
(A) 1.17%

----------
biological target: Phosphorylase b kinase gamma catalytic chain, liver/testis isoform (Homo sapiens); details: at 0.1 µM;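 also: values are mean inhibition of PHKG2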
Please respond with reported inhibition for every item in the list.
Note: unit % is implicit; provide only the numeric part.

(Q) Name the reported inhibition value associated with the compound "Nc1nccc(-c2c(-c3ccc(F)cc3)ncn2CCCN2CCOCC2)n1"
(A) 3.78

(Q) Another compound to look at: "C[C@@H](Oc1cc(-n2cnc3ccc(OCC4CCN(C)CC4)cc32)sc1C(N)=O)c1ccccc1C(F)(F)F"
(A) -1.2

(Q) Subsequent entry: "Cc1ccc(NC(=O)CC2CC2)cc1-c1ccc(C(=O)NCC2CC2)cc1"
(A) 4.45

(Q) And the next one, "CN(c1ccc(NC(=O)Nc2ccc(OC(F)(F)F)cc2)cc1)c1ccnc(Nc2cccc(S(N)(=O)=O)c2)n1" ?
(A) 3.6

(Q) Thanks! And "CS(=O)(=O)Nc1cccc(-c2ccc3c(NC(=O)C4CC4)n[nH]c3c2)c1" ?
(A) 2.36

(Q) Same question for "COc1cccc(-n2ncc3c(N/N=C/c4ccc(S(C)(=O)=O)cc4)ncnc32)c1" please.
(A) 1.57

(Q) Try this compound too: "CC(C)c1ccc2c(c1)NC(=O)/C2=N/Nc1ccc(S(N)(=O)=O)cc1"
(A) 0.03

(Q) Same thing, different compound: "COc1ccc2ncnc(Nc3ccc(OCc4ccccc4)cc3)c2c1"
(A) 1.92

(Q) Queued: "CCn1c(-c2nonc2N)nc2ccc(F)cc21"
(A) 7.81

(Q) Entry to check: "COc1cccc(-n2nc(C)c3c(N/N=C(\C)c4ccncc4)ncnc32)c1"
(A) 0.83

(Q) CCCN1CCCC(c2ccc(Nc3nc(Nc4cc(F)ccc4C(N)=O)c4cc[nH]c4n3)c(OC)c2)C1 (configuration not stated) ?
(A) 26.9

(Q) Same read-out for "COc1cc2ncn(-c3cc(OCc4ccccc4S(C)(=O)=O)c(C#N)s3)c2cc1OC" ?
(A) 4.94

----------
molecular target: Tyrosine-protein kinase Lyn (Homo sapiens) (UniProt P07948); conditions: at 0.1 µM;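 also: mean inhibition of the LYN A splice variant of the kinase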
Sequence (P07948 2-512 limits assumed): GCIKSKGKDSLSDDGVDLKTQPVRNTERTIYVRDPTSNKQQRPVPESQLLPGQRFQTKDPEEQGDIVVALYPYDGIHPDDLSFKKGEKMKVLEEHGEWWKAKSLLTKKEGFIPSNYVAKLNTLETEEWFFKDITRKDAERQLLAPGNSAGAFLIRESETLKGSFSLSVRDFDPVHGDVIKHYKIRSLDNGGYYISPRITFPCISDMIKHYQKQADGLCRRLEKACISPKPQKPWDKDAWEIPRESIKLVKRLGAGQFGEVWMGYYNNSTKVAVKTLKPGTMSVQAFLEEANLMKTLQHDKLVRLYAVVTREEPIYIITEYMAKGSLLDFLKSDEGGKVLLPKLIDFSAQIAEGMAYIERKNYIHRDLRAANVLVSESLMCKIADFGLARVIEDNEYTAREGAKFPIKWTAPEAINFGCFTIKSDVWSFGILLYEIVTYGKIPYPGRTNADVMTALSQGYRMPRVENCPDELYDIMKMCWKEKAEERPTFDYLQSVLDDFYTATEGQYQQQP
Description: GSK_PKIS: LYN A (splice variant) mean inhibition at 0.1 uM [Nanosyn]
Would you kindly list inhibition for each of these compounds?
Provide the measurement as a number trailed by its unit.

(Q) I have this compound here, "CN(c1ccc(NC(=O)Nc2ccc(OC(F)(F)F)cc2)cc1)c1ccnc(Nc2cccc(S(N)(=O)=O)c2)n1" , and I need its recorded inhibition.
(A) 39.9%

(Q) Ok, now "COc1cc2ncnc(Nc3ccc4c(cnn4Cc4ccccc4)c3)c2cc1OC"
(A) 10.4%

(Q) One more compound: "COc1cc2ncnc(Nc3ccc(C)c(O)c3)c2cc1OC"
(A) 39.7%

(Q) Moving on to the next compound: "CCn1c(-c2nonc2N)nc2ccc(F)cc21"
(A) 7.21%

(Q) What do we get for "CN(C)CCCn1c(-c2nonc2N)nc2cnccc21" ?
(A) 4.87%

(Q) Also "COC(=O)c1cncc(/C=C/c2c(C)cc(O)cc2C)c1" ?
(A) 12.3%

(Q) // same read-out, input: "NS(=O)(=O)c1ccc(NC=C2C(=O)Nc3ccc4ncsc4c32)cc1"
(A) 11.5%

(Q) Follow-up item: "NC(=O)c1cccc(Nc2nccc(Nc3cccc(F)c3)n2)c1"
(A) 3.6%

(Q) Can you check "CS(=O)(=O)CCNCc1nc(-c2ccc3ncnc(Nc4ccc(OCc5cccc(C(F)(F)F)c5)cc4)c3c2)cs1" next?
(A) 2.63%

(Q) And what about the compound "CN(C)C(=O)O[C@H]1CN[C@H](C#Cc2cc3ncnc(Nc4ccc(OCc5cccc(F)c5)c(Cl)c4)c3s2)C1" ?
(A) 3.87%

(Q) Also, "NS(=O)(=O)c1ccc(N/N=C2\C(=O)Nc3ccc(Cl)cc32)cc1" please.
(A) 4.69%

(Q) Similarly, "CC(C)c1ccc2c(c1)NC(=O)/C2=N/Nc1ccc(S(N)(=O)=O)cc1" ?
(A) 3.02%

(Q) Could you do the same for "CS(=O)(=O)Nc1cccc(-c2ccc3c(NC(=O)C4CC4)n[nH]c3c2)c1" , please?
(A) 1.17%

(Q) "COC(=O)Nc1nc2cc(Oc3ccc(NC(=O)Nc4cccc(Br)c4)cc3)ccc2[nH]1" ?
(A) 9.62%

(Q) Same read-out for "COc1ccc(-c2nn3ncccc3c2-c2ccnc(Nc3cccc(C(F)(F)F)c3)n2)cc1" ?
(A) 4.45%

(Q) Now consider "O=C1Nc2ccccc2/C1=C/Nc1ccc2[nH]c(=O)[nH]c2c1" .
(A) 10.5%

(Q) Thanks! And "OCc1ccc(-c2nc(-c3ccccn3)c(-c3ccc4c(c3)OCO4)[nH]2)cc1" ?
(A) 6.03%

(Q) Quick one: "NS(=O)(=O)c1ccc(-c2cc3ccncc3cc2OCc2ccccc2)cc1"
(A) 5.43%

(Q) // same read-out, input: "O=S(=O)(CCOCc1ccc(-c2ccc3ncnc(Nc4ccc(OCc5cccc(F)c5)c(Cl)c4)c3c2)o1)c1ccccc1"
(A) 1.13%

(Q) Moving on to the next compound: "Nc1ccc(C#Cc2cncnc2Nc2ccc(OCc3cccc(F)c3)c(Cl)c2)cc1"
(A) 3.52%

----------
Can you tell me inhibition for the items I'm about to list?
Target: Serine/threonine-protein kinase Sgk1 (Homo sapiens) (UniProt O00141)
Sequence (whole entry): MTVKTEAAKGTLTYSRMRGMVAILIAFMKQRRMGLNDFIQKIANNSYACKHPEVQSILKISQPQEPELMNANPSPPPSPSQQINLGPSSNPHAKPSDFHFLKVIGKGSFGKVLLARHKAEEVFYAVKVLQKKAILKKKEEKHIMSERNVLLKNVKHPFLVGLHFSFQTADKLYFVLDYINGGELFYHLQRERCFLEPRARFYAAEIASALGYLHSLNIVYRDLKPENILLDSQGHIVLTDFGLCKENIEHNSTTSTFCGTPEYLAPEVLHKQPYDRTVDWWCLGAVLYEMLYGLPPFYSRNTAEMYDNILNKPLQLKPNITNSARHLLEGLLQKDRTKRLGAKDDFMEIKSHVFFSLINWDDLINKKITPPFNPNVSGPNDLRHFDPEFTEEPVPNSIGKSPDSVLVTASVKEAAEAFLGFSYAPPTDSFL
Conditions: at 0.1 µM
Description: GSK_PKIS: SGK1 mean inhibition at 0.1 uM [Nanosyn]
Write the number in % without appending the unit.

(Q) Which value of inhibition has been reported for "NS(=O)(=O)c1ccc(-c2cc3ccncc3cc2OCc2ccccc2)cc1" in the records?
(A) 2.5

(Q) Continue with "Nc1nccc(-c2c(-c3ccc(F)cc3)ncn2CCCN2CCOCC2)n1"
(A) 1.7

(Q) Next compound up: "CN(c1ccc(NC(=O)Nc2ccc(OC(F)(F)F)cc2)cc1)c1ccnc(Nc2cccc(S(N)(=O)=O)c2)n1"
(A) 2.63

(Q) Next: "O=C(Nc1ccc(Oc2ccc3[nH]c(NC(=O)c4ccco4)nc3c2)cc1)Nc1cc(C(F)(F)F)ccc1F"
(A) 0.67

(Q) Request: "COC(=O)Nc1nc2cc(Oc3ccc(NC(=O)Nc4cccc(Br)c4)cc3)ccc2[nH]1"
(A) 4.42

----------
target: Serine/threonine-protein kinase MRCK beta (Homo sapiens); conditions: at 1 µM;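 also: averaged inhibition values against MRCK beta, part of the GSK PKIS profiling dataset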
measurement_label: inhibition

(Q) Returns the measured inhibition for the input molecule. Input: "COC(=O)c1ccc2c(c1)C(=Cc1cc(Br)c(O)c(Br)c1)C(=O)N2"
(A) -0.15%

(Q) Similarly, "Cc1cc(-c2ccccn2)cc(C)c1/C=C/c1cncc(-c2nn[nH]n2)c1" ?
(A) 0.41%

(Q) Again, but for "COc1cc2ncnc(Nc3ccc4c(cnn4Cc4ccccc4)c3)c2cc1OC"
(A) -0.76%

(Q) One more molecule: "NS(=O)(=O)c1ccc(NC=C2C(=O)Nc3ccc4ncsc4c32)cc1"
(A) 15.4%

(Q) Field entry: "CCn1c(-c2nonc2N)nc2c(C#CC(C)(C)O)nc(OCCNC)cc21"
(A) 2.36%

(Q) Would you mind doing "NC(=O)c1sc(-n2cnc3ccccc32)cc1OCc1ccccc1Br" as well?
(A) 0.28%

(Q) What do we get for "Cc1ccc(O)cc1Nc1ccnc2ccc(S(C)(=O)=O)cc12" ?
(A) 1.42%

----------
biological target: Serine/threonine-protein kinase MARK2 (Homo sapiens); settings: at 0.1 µM;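 also: mean percent inhibition of PAR-1Balpha kinase activity, reported from the GSK PKIS screen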
measurement_label: inhibition (%)
Write it as a number; the unit % goes unstated.

(Q) Returns the measured inhibition for the input compound. Input: "C[C@@H](Oc1cc(-n2cnc3ccc(OC[C@@H](O)CO)cc32)sc1C(N)=O)c1ccccc1Cl"
(A) -0.27

(Q) One more compound: "Cc1ccc(NC(=O)CC2CC2)cc1-c1ccc(C(=O)NCC2CC2)cc1"
(A) -1.05

(Q) Same lookup for "Nc1nccc(C#Cc2cncnc2Nc2ccc(OCc3cccc(F)c3)c(Cl)c2)n1" , please.
(A) 1.67

(Q) Follow-up entry: "N#Cc1cccc(Nc2nccc(-c3cnn4ncccc34)n2)c1"
(A) 1.3

(Q) // query: "CCS(=O)(=O)c1ccc(OC)c(Nc2nccc(N(C)c3ccc4c(C)n[nH]c4c3)n2)c1"
(A) 0.55

(Q) Now try "Cc1cc(-c2ccccn2)cc(C)c1/C=C/c1cncc(-c2nn[nH]n2)c1" .
(A) 1.02

(Q) Subsequent entry: "COc1cccc(-n2ncc3c(N/N=C/c4ccc(S(C)(=O)=O)cc4)ncnc32)c1"
(A) 0.16

(Q) Thanks! And "COc1ccc2ncnc(Nc3ccc(OCc4ccccc4)cc3)c2c1" ?
(A) 0.5

(Q) Now consider "COc1cc(Nc2nccc(-c3cnn4ncccc34)n2)cc(OC)c1" and answer again.
(A) 2.81

(Q) Please give the result for "NS(=O)(=O)c1ccc(Nc2cc(-c3cccc(O)c3)n[nH]2)cc1" too.
(A) 1.86

(Q) Now give it for "COC(=O)c1cncc(/C=C/c2c(C)cc(O)cc2C)c1" too.
(A) 0.36

(Q) Now give it for "OCc1ccc(-c2nc(-c3ccccn3)c(-c3ccc4c(c3)OCO4)[nH]2)cc1" too.
(A) 1.8

(Q) Param item: "CS(=O)(=O)Nc1cccc(-c2ccc3c(NC(=O)C4CC4)n[nH]c3c2)c1"
(A) -1.45

(Q) Do the same for "CCn1c(-c2nonc2N)nc2ccc(F)cc21" please
(A) 2.57

(Q) Also, "CCn1c(-c2nonc2N)nc2c(C#CC(C)(C)O)nc(OCCNC)cc21" please.
(A) 1.74

(Q) For "CCS(=O)(=O)c1ccc(OC)c(Nc2ncc(-c3cccc(OC)c3)o2)c1" then?
(A) -0.52

(Q) What would you report for "NC(=O)c1cccc(Nc2nccc(Nc3cccc(F)c3)n2)c1" ?
(A) -1.24

(Q) Request: "NS(=O)(=O)c1cccc(Nc2cc(-c3ccc(F)cc3)n[nH]2)c1"
(A) 1.43

(Q) And for "COc1cccc(-n2ncc3c(N/N=C/c4ccc(C)cc4)ncnc32)c1" ?
(A) 2.05

(Q) Same question, "c1ccc(Nc2ncc(-c3ccccc3)o2)cc1" this time
(A) 0.14

(Q) Field entry: "Oc1cccc(-c2nc(-c3ccccc3)[nH]c2-c2ccncc2)c1"
(A) -0.88

(Q) Follow-up item: "NS(=O)(=O)c1ccc(NC=C2C(=O)Nc3ccc4ncsc4c32)cc1"
(A) 14
